Test system: pigweed (Amaranthus retroflexus)
Assay: Test A preemergence, pigweed
Assay type: in vivo
Conditions: 500 g ai/ha, 0 to 100 scale, 0 is no effect, 100 is complete control
measured endpoint: Pigweed plant response rating
One number for each entry.

# compound, Pigweed plant response rating
rows = [
    ("C[C@@H](Nc1nc(N)c(C(F)(F)F)c(C(F)(F)F)n1)C1Cc2ccccc2C1", 90),
    ("CC[C@@H](Nc1ncc(C(F)(F)F)c(N)n1)c1cc2ccccc2s1", 100),
    ("CC(Nc1nc(N)c(C(F)(F)F)c(C(F)(F)F)n1)c1coc2ccccc12 (stereo not shown)", 10),
    ("C[C@H](Nc1ncc(C(F)(F)F)c(N)n1)c1csc2ccccc12", 0),
    ("C[C@H](Nc1ncc(C(F)(F)F)c(N)n1)c1coc2ccc(F)cc12", 30),
]

Could you report Pigweed plant response rating for every entry in the following list?
1. C[C@@H](Nc1ncc(C#N)c(N)n1)c1cc2ccccc2s1
2. C[C@@H](Nc1ncc(C(F)(F)F)c(N)n1)c1cc2cccc(F)c2s1
3. CCC(Nc1ncc(C(F)(F)F)c(N)n1)c1coc2ccccc12 (racemic)

1: 80; 2: 100; 3: 90

Could you report Pigweed plant response rating for every entry in the following list?
1. CC[C@H](Nc1ncc(C(F)(F)F)c(N)n1)c1cc2ccccc2s1
2. C[C@@H](Nc1ncc(C(F)(F)F)c(N)n1)c1coc2cc(Cl)ccc12

20
100

---

System: ragweed (common ragweed, Ambrosia elatior)
Test: Test A preemergence, ragweed
Format: in vivo
Conditions: 125 g ai/ha, 0 to 100 scale, 0 is no effect, 100 is complete control
measured endpoint: Ragweed plant response rating

# molecule, Ragweed plant response rating
records = [
    ("Cc1cccc2sc([C@@H](C)Nc3ncc(C(F)(F)F)c(N)n3)cc12", 80),
    ("Nc1nc(NC(c2coc3ccccc23)C2CC2)ncc1C(F)(F)F (racemic)", 50),
    ("CC(Nc1nc(N)c(C(F)(F)F)c(C(F)(F)F)n1)c1cc2ccccc2o1 (racemic)", 0),
]

Next up:
Field request: Ragweed plant response rating | item: CC(Nc1ncc(C(F)(F)F)c(N)n1)c1cc2c(Br)cccc2o1 (stereo not shown)
50

---

For each of the compounds below, state its Plant response rating, Barnyardgrass.
Tested on: barnyardgrass (Echinochloa crus-galli)
Assay: Test A postemergence, barnyardgrass
Type: in vivo
Conditions: 31 g ai/ha, 0 to 100 scale, 0 no effect, 100 complete control
One number for each entry.

Record excerpt, results attached:
# compound, data value
data = [
    ("C[C@@H](Nc1nc(N)c(C(F)(F)F)c(C(F)F)n1)c1cc2ccccc2s1 [Compound 109]", 0),
    ("C[C@@H](Nc1ncc(C(F)(F)F)c(N)n1)c1cc2c(F)ccc(F)c2s1 [Compound 114]", 10),
]

Could you report Plant response rating, Barnyardgrass for every entry in the following list?
1. Cc1cccc2sc([C@@H](C)Nc3ncc(C(F)(F)F)c(N)n3)cc12 [Compound 115]
2. CC(F)c1nc(N[C@H](C)c2cc3ccccc3s2)nc(N)c1C(F)(F)F (some centres unmarked) [Compound 108]
3. C[C@@H](Nc1ncc([S+](C)[O-])c(N)n1)c1cc2ccccc2s1 (some centres unmarked) [Compound 110]

[10, 20, 0]

---

For each of the compounds below, state its Ragweed plant response rating.
Test system: ragweed (common ragweed, Ambrosia elatior)
Experiment: Test A postemergence, ragweed
Format: in vivo
Conditions: 500 g ai/ha, 0 to 100 scale, 0 is no effect, 100 is complete control
Give bare numbers.

Record excerpt, results attached:
# test smiles, measured on, data value
data = [
    ("CC[C@H](Nc1ncc(C(F)(F)F)c(N)n1)c1cc2ccccc2s1", "ragweed (common ragweed, Ambrosia elatior)", 0),
    ("C[C@H](Nc1ncc(C(F)(F)F)c(N)n1)c1cc2ccc(F)cc2s1", "ragweed (common ragweed, Ambrosia elatior)", 0),
]

Next up:
Field request: Ragweed plant response rating | item: CC(C)[C@@H](Nc1ncc(C(F)(F)F)c(N)n1)c1cc2ccccc2s1
30

---

System: rice (Oryza sativa)
Test: Test B flooded paddy test, rice
Type: in vivo
Conditions: Flood, 250 g ai/ha, applied to paddy water, 2-leaf stage, visual evaluation after 13 to 15 d
measured endpoint: Plant response rating, Rice (0 to 100 scale, 0 is no effect, 100 is complete control)

Record excerpt, results attached:
# molecule, data value
records = [
    ("CC(COc1cc(Cl)cc(Cl)c1)Nc1ncc(C(F)(F)F)c(N)n1 (centres unmarked)", 0),
    ("CCc1ccc2oc([C@@H](C)Nc3ncc(C(F)(F)F)c(N)n3)cc2c1", 0),
    ("C[C@@H](Nc1nc(N)c(C(F)(F)F)c(C(F)(F)F)n1)C1Cc2ccccc2C1", 0),
    ("CCC(Nc1ncc(C(F)(F)F)c(N)n1)c1cc2ccccc2o1 (racemic)", 20),
    ("CC(Nc1nc(N)c(C(F)(F)F)c(C(F)(F)F)n1)C1Cc2ccccc2C1 (racemic)", 0),
]

Could you report Plant response rating, Rice (0 to 100 scale, 0 is no effect, 100 is complete control) for every entry in the following list?
1. CCC(Nc1ncc(C#N)c(N)n1)c1cc2ccccc2o1 (racemic)
2. C[C@@H](Nc1ncc(C(F)(F)F)c(N)n1)c1cc2cc(F)c(F)cc2o1

0
0

Field request: Plant response rating, Rice (0 to 100 scale, 0 is no effect, 100 is complete control) | item: CC[C@@H](Nc1ncc(C(F)(F)F)c(N)n1)c1coc2ccccc12
10

---

For each of the compounds below, state its Plant response rating, Barnyardgrass.
Test system: barnyardgrass (Echinochloa crus-galli)
Assay: Test A postemergence, barnyardgrass
Format: in vivo
Conditions: 125 g ai/ha, 0 to 100 scale
Give bare numbers.

# compound, Plant response rating, Barnyardgrass
measured = [
    ("CC(COc1cccc(F)c1)Nc1ncc(C(F)(F)F)c(N)n1 (centres unmarked)", 0),
    ("CC(Nc1ncc(C#N)c(N)n1)c1cc2ccccc2o1 (racemic)", 0),
    ("CCC(Nc1ncc(C#N)c(N)n1)c1cc2ccccc2o1 (racemic)", 0),
    ("C[C@@H](Nc1ncc(C(F)(F)F)c(N)n1)c1ccc2ccccc2c1", 0),
]

Next up:
Please state recorded Plant response rating, Barnyardgrass (tested on barnyardgrass (Echinochloa crus-galli)) of Cc1ccc2cc([C@@H](C)Nc3ncc(C(F)(F)F)c(N)n3)oc2c1
10

---

Test system: blackgrass (Alopecurus myosuroides)
Assay: Test A postemergence, blackgrass
Assay type: in vivo
Conditions: 125 g ai/ha, 0 to 100 scale, 0 no effect, 100 complete control
measured endpoint: Plant response rating, Blackgrass

Record excerpt, results attached:
# molecule, measured endpoint, data value
data = [
    ("CC(Nc1nc(N)c(C(F)(F)F)c(C(F)(F)F)n1)c1coc2ccccc12 (centres unmarked) [Compound 87]", "Plant response rating, Blackgrass", 0),
    ("C[C@H](Nc1nc(N)c(C(F)(F)F)c(C(F)(F)F)n1)c1cc2ccccc2o1 [Compound 66]", "Plant response rating, Blackgrass", 0),
    ("C[C@H](Nc1ncc(C(F)(F)F)c(N)n1)c1csc2ccccc12 [Compound 42]", "Plant response rating, Blackgrass", 20),
]

Could you report Plant response rating, Blackgrass for every entry in the following list?
1. CC(Nc1ncc(C(F)(F)F)c(N)n1)c1coc2cc(Cl)ccc12 (racemic) [Compound 77]
2. Cc1cccc2sc([C@@H](C)Nc3ncc(C(F)(F)F)c(N)n3)cc12 [Compound 115]
3. CC(F)c1nc(N[C@H](C)c2cc3ccccc3s2)nc(N)c1C(F)(F)F (some centres unmarked) [Compound 108]
4. Nc1nc(NC(c2coc3ccccc23)C2CC2)ncc1C(F)(F)F (racemic) [Compound 95]

[0, 30, 0, 0]

Field request: Plant response rating, Blackgrass | item: C[C@H](Nc1nc(N)c(C(F)(F)F)c(C(F)(F)F)n1)C1Cc2ccccc2C1 [Compound 68]
0

---

For each of the compounds below, state its Pigweed plant response rating.
Test system: pigweed (Amaranthus retroflexus)
Assay: Test A preemergence, pigweed
Type: in vivo
Conditions: 125 g ai/ha, 0 to 100 scale, 0 is no effect, 100 is complete control

Record excerpt, results attached:
# compound, data value
rows = [
    ("C[C@@H](Nc1ncc([S+](C)[O-])c(N)n1)c1cc2ccccc2s1 (some centres unmarked) [Compound 110]", 30),
    ("Nc1nc(N[C@H](c2coc3ccccc23)C2CC2)ncc1C(F)(F)F [Compound 78]", 0),
    ("Nc1nc(NC(c2cc3ccccc3o2)C2CC2)ncc1C(F)(F)F (centres unmarked) [Compound 88]", 100),
    ("C[C@@H](Nc1ncc(C(F)(F)F)c(N)n1)c1cc2c(F)ccc(F)c2s1 [Compound 114]", 100),
]

Next up:
Field request: Pigweed plant response rating | item: C[C@@H](Nc1ncc(C(F)(F)F)c(N)n1)c1cc2c(F)cccc2o1 [Compound 73]
100
